Where do these numbers come from? They come from paper PMC5736629.

- study_system: AmtB (Escherichia coli)
- Construct: pelB signal peptide (N, cleaved yes); 10x His-tag (N, cleaved yes); made in house; host or cells: Escherichia coli C41(DE3), pET15b
- Sequence (P69681 23-428): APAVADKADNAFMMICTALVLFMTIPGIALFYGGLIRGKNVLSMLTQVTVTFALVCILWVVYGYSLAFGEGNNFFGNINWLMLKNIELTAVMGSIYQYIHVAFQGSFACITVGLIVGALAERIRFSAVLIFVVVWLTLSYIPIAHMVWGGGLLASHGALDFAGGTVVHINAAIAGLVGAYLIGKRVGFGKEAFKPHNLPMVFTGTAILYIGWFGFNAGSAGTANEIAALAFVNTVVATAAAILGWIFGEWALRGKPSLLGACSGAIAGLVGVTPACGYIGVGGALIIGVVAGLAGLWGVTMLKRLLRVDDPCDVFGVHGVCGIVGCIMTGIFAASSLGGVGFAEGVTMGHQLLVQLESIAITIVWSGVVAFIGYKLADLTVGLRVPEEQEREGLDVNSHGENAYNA
- assay_summary: Native MS lipid titration, lipid binding to AmtB (equilibrium-coupled binding model)
- experimental_setup: KD,AL1, first lipid binding to AmtB, 50 µM ADP, 298 K
- Description: A stock of ADP was prepared by dissolving the ammonium salt form of ADP in water followed by adjusting the pH with ammonium hydroxide to 7.0. Serial dilutions into MS buffer (200 mM ammonium acetate, 0.5% C8E4, and pH adjusted to 7.4 with ammonium hydroxide) supplemented with 5 mM BME was performed to prepare ADP at certain concentrations. Phospholipids were prepared as previously described. […] Phospholipid concentration was determined by phosphorus analysis.
Recorded Kd for the following compounds
Just the number please, in µM, no unit attached.

{"compound": "CCCCCCCC/C=C\\CCCCCCCC(=O)O[C@H](COC(=O)CCCCCCCCCCCCCCC)COP(=O)(O)OC[C@H](N)C(=O)O", "study_system": "AmtB (Escherichia coli)", "Kd [µM]": 10.5}
{"compound": "CCCCCCCC/C=C\\CCCCCCCC(=O)O[C@H](COC(=O)CCCCCCCCCCCCCCC)COP(=O)(O)OCCN", "study_system": "AmtB (Escherichia coli)", "Kd [µM]": 21.1}
{"compound": "CCCCCCCC/C=C\\CCCCCCCC(=O)O[C@H](COC(=O)CCCCCCCCCCCCCCC)COP(=O)(O)OCC(O)CO (stereo partly shown)", "study_system": "AmtB (Escherichia coli)", "Kd [µM]": 13.5}

Attention now turns to another entry.
Could you share which Kd value was measured for `CCCCCCCC/C=C\CCCCCCCC(=O)O[C@H](COC(=O)CCCCCCCCCCCCCCCCC)COP(=O)(O)OCCN` ?
16.4
